Every entry's value here was drawn from patent US20230143604A1.

Molecular target: T1, full-length human GIPR with an N-terminal FLAG tag (human, UniProt P48546 22-466)
T1 sequence (looked up): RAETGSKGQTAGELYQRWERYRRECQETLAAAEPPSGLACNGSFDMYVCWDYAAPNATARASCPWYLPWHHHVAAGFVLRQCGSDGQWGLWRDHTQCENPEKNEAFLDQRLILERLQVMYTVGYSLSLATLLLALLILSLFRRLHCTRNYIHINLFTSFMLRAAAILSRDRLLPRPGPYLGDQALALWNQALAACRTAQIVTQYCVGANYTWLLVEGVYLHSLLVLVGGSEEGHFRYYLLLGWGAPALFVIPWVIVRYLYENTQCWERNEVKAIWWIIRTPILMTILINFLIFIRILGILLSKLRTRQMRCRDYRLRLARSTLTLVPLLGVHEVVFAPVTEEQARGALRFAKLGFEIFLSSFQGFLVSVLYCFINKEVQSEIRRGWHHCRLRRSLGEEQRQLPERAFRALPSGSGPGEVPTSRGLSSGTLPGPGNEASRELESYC
Test: cell-based or functional assay
Starred links: 1 amine or outer side, 2 acyl side, 3 side chain; linkers in the order of their positions; H or OH if unused. Non-standard residues stand in square brackets, D forms with d. Groups on a side chain read outwards from the residue. No end group written: not given here. *: point of attachment. C20 diacid = O=C(O)CCCCCCCCCCCCCCCCCCC(=O)*; C18 diacid = O=C(O)CCCCCCCCCCCCCCCCC(=O)*; C17 diacid = O=C(O)CCCCCCCCCCCCCCCC(=O)*; γGlu = O=C(O)[C@H](CCC(=O)[*:2])N[*:1]; NMeY = CN[C@@H](Cc1ccc(O)cc1)C(=O)O; AEEA = NCCOCCOCC(=O)O; Aib = CC(C)(N)C(=O)O
parameter: Human GIPR cAMP EC50, HEK293T (pM)
Just the number in pM, nothing appended.

Guide cases for Human GIPR cAMP EC50, HEK293T, answers given:
binder | result_unit | value_observed
[NMeY][Aib]EGTFISDYSI[Aib]LDR[Aib]AQ[Aib]NFVNWLLAQK([AEEA-AEEA-γGlu-γGlu-C17 diacid])PSSGAPPPS-NH2 [Compound No. 16] | pM | 0.4
[NMeY][Aib]EGTFISDYSI[Aib]K([AEEA-AEEA-γGlu-γGlu-C18 diacid])DR[Aib]AQ[Aib]NFVNWLLAQRPSSGAPPPS-NH2 [Compound No. 28] | pM | 0.3
[NMeY][Aib]EGTFISDYSIAK([γGlu-γGlu-γGlu-C17 diacid])DR[Aib]AQ[Aib]NFVNWLLAQSPSSGAPPPS-NH2 [Compound No. 12] | pM | 0.2
[NMeY][Aib]EGTFISDYSIALDR[Aib]HQ[Aib]NFVNWLLAQK([AEEA-AEEA-γGlu-C18 diacid])PSSGAPPPS-NH2 [Compound No. 1] | pM | 0.4
[NMeY][Aib]EGTFISDYSI[Aib]LDR[Aib]K([2OEGgEgE-C18 diacid])Q[Aib]DFVNWLLAQRG-OH [Compound No. 73] | pM | 0.3

Fill in the blank: the reported Human GIPR cAMP EC50, HEK293T of YXEGTFISDYSIXXDSXAQXDFVNWLLAQRG (N-terminus H; Aib at 2,13,17,20; Lys(G5-C18 diacid) at 14; C-terminal OH) [Compound No. 150] is ____. 0.4

Now consider [NMeY][Aib]EGTFISDYSI[Aib]LDR[Aib]AQ[Aib]K([2OEGgEgE-C20 diacid])FVNWLLAQKG-OH [Compound No. 65] . 1

Now consider YXEGTFISDYSIAXDRXAQXDFVEWLLAQRG (N-terminus H; Aib at 2,17,20; Lys(G5-C18 diacid) at 14; C-terminal OH) [Compound No. 144] . 0.9

Now consider YXEGTFISDYSIXXDRXAQXNFVNWLLAQSPSSGAPPPS (N-methyl Tyr 1; Aib at 2,13,17,20; Lys(G5-C17 diacid) at 14; C-terminal OH) [Compound No. 95] . 0.4

Now consider YXEGTFISDYSIAXDRXAQXDFVNWLLAQSPG (N-methyl Tyr 1; Aib at 2,17,20; Lys(G5-C20 diacid) at 14; C-terminal OH) [Compound No. 111] . 0.1

Now consider YXEGTFISDYSIAXDRXAQXDFVEWLLAQSPG (N-methyl Tyr 1; Aib at 2,17,20; Lys(G5-C18 diacid) at 14; C-terminal OH) [Compound No. 118] . 0.7

Now consider YXEGTFISDYSIAXDRXAQXDFVNWLLAQSPG (N-methyl Tyr 1; Aib at 2,17,20; Lys(G5-C18 diacid) at 14; C-terminal OH) [Compound No. 84] . 0.2

Now consider YXEGTFISDYSIAXDRXAQXDFVNWLLAQSPG (N-terminus H; Aib at 2,17,20; Lys(G5-C18 diacid) at 14; C-terminal OH) [Compound No. 128] . 0.9

Now consider [NMeY][Aib]EGTFISDYSI[Aib]LDR[Aib]AQ[Aib]K([2OEGgEgE-C18 diacid])FVNWLLAQRPSSGAPPPS-NH2 [Compound No. 89] . 0.4

Now consider YXEGTFISDYSIXLDSXAQXDFVNWLLAQKG (N-methyl Tyr 1; Aib at 2,13,20; Lys(G5-C18 diacid) at 17; C-terminal OH) [Compound No. 77] . 0.3

Now consider [NMeY][Aib]EGTFISDYSI[Aib]LDR[Aib]AQ[Aib]K([AEEA-AEEA-γGlu-C18 diacid])FVNWLLAQSPSSGAPPPS-NH2 [Compound No. 91] . 0.5
